logD for assorted molecules
# measurement-notes: physchem
# conditions: 1-octanol/PBS, pH 7.4
Answer with the value's number alone.

{"smiles-str": "CS(=O)(=O)Nc1noc2cc(COc3ccc(Cl)c(Cl)c3)c(Cl)cc12", "logD": 2.5}
{"smiles-str": "CS(=O)(=O)Nc1noc2cc(OCC34CC5CC(CC(C5)C3)C4)c(Cl)cc12", "logD": 3.5}
{"smiles-str": "CS(=O)(=O)Nc1noc2cc(OCc3ccc(Cl)c(Cl)c3)c(Cl)cc12", "logD": 1.8}
{"smiles-str": "CS(=O)(=O)Nc1nnc2cc(OCC34CC5CC(CC(C5)C3)C4)c(Cl)cn12", "logD": 2.7}

Query molecule follows.
The measured logD associated with "CS(=O)(=O)Nc1nnc2cc(COc3ccc(Cl)c(Cl)c3)c(C3CC3)cn12" reads 1.5

----------
# measurement-notes: in vitro
# conditions: dog, MDCK-MDR1
Quick reference: Papp B→A at 10 µM of the listed items.
Please report the result as a number followed by the unit.

{"smiles-str": "CS(=O)(=O)Nc1nnc2cc(COc3cc(Cl)cc(Cl)c3)c(C3CC3)cn12", "Papp B→A at 10 µM": "15 ×10⁻⁶ cm/s"}

Turning now to a further record.
Note to self: Papp B→A at 10 µM recorded for "CS(=O)(=O)Nc1nnc2cc(OCC34CC5CC(CC(C5)C3)C4)c(C3CC3)cn12" was 3.2 ×10⁻⁶ cm/s

----------
Reported logD values for a set of molecules
# measurement-notes: physchem
# conditions: 1-octanol/PBS, pH 7.4

{"molecule": "CCc1cn2c(NS(C)(=O)=O)nnc2cc1OCC12CC3CC(CC(C3)C1)C2", "logD": 3.1}
{"molecule": "CS(=O)(=O)Nc1nnc2cc(OCC34CC5CC(CC(C5)C3)C4)ccn12", "logD": 2.2}

Value of logD reported for the molecule CS(=O)(=O)Nc1nnc2cc(OCC3C4CC5CC(C4)CC3C5)c(C3CC3)cn12 (stereo not drawn) is 2.3

----------
# measurement-notes: in vivo
# conditions: CF1, mouse, iv, 0.5 mg/kg
experimental-readout: Vd
# do not omit the unit; it follows the number

get_value(item= "CS(=O)(=O)Nc1nnc2cc(COc3cc(Cl)cc(Cl)c3)c(C3CC3)cn12" , readout=Vd) returns 0.2 L/kg

----------
# measurement-notes: Dissociation constant, pKa of the compound by UV-metric method
# Format: physicochemical
experimental-readout: pKa
Please give only the number in your answer, with no unit.

Example entries and their recorded answers appear below.
{"smiles-str": "CS(=O)(=O)NC(=O)c1cc(Cl)c(OCC23CC4CC(CC(C4)C2)C3)cc1F", "experimental-readout": "pKa", "experimental-value": 3.8}
{"smiles-str": "CS(=O)(=O)Nc1nnc2cc(OCC34CC5CC(CC(C5)C3)C4)c(Cl)cn12", "experimental-readout": "pKa", "experimental-value": 5.6}

Below: the item to evaluate.
In plain terms, "CS(=O)(=O)Nc1noc2cc(OCC34CC5CC(CC(C5)C3)C4)c(Cl)cc12" has a documented pKa of 4.7

----------
# measurement-notes: in vivo
# conditions: FVB hSCN9a Tg, mouse, po, 30 mg/kg
experimental-readout: Tmax at 3 h (h)
Use h as the unit, but write only the number.

Consider "CS(=O)(=O)Nc1nnc2cc(OCC34CC5CC(CC(C5)C3)C4)c(C3CC3)cn12" . Its measured Tmax at 3 h is 2
